- Test system: large crabgrass
- Measurement notes: Test F preemergence test
- Format: in vivo, Digitaria sanguinalis
- Condition summary: Preemergence; 31 g ai/ha; scale 0 to 100
Could you please report measured Plant response rating, Crabgrass, Large for the items listed next?

Respond only with Plant response rating, Crabgrass, Large recorded for `Cn1nc(C(F)(F)F)c(CS(=O)(=O)c2cccc[n+]2[O-])c1OC(F)F` 70

Respond only with Plant response rating, Crabgrass, Large recorded for `CCn1nc(C(F)(F)F)c(CS(=O)(=O)c2cccc[n+]2[O-])c1OCC(F)(F)F` 90

Respond only with Plant response rating, Crabgrass, Large recorded for `Cn1nc(C(F)(F)F)c(CS(=O)(=O)c2cccc[n+]2[O-])c1OCC(F)(F)F` 95

Respond only with Plant response rating, Crabgrass, Large recorded for Cn1nc(C(F)(F)F)c(C[S+]([O-])c2ccc(F)c[n+]2[O-])c1OC(F)F (stereo not drawn) 75

Respond only with Plant response rating, Crabgrass, Large recorded for CC(Oc1c(CS(=O)(=O)c2cccc[n+]2[O-])c(C(F)(F)F)nn1C)C(F)(F)F (stereo not drawn) 50

Respond only with Plant response rating, Crabgrass, Large recorded for CC(c1c(C(F)(F)F)nn(C)c1OCC(F)(F)F)S(=O)(=O)c1cccc[n+]1[O-] (racemic) 35

Respond only with Plant response rating, Crabgrass, Large recorded for Cc1cc[n+]([O-])c(S(=O)(=O)C(C)c2c(C(F)(F)F)nn(C)c2OC(F)F)c1 (stereo not drawn) 80

Respond only with Plant response rating, Crabgrass, Large recorded for Cn1nc(C(F)(F)F)c(C[S+]([O-])c2ccc(F)c[n+]2[O-])c1OCC(F)(F)F (stereo not drawn) 98

Respond only with Plant response rating, Crabgrass, Large recorded for Cn1nc(C(F)(F)F)c(C[S+]([O-])c2ccc(Cl)c[n+]2[O-])c1OCC(F)(F)F (racemic) 60

Respond only with Plant response rating, Crabgrass, Large recorded for `Cc1cc[n+]([O-])c(S(=O)(=O)Cc2c(C(F)(F)F)nn(C)c2OCC(F)(F)F)c1` 95

Respond only with Plant response rating, Crabgrass, Large recorded for CC(c1c(C(F)(F)F)nn(C)c1OC(F)F)S(=O)(=O)c1cccc[n+]1[O-] (stereo not drawn) 85

Respond only with Plant response rating, Crabgrass, Large recorded for Cn1nc(C(F)(F)F)c(C[S+]([O-])c2cccc[n+]2[O-])c1Cl (stereo not drawn) 65

Respond only with Plant response rating, Crabgrass, Large recorded for CCn1nc(C(F)(F)F)c(C[S+]([O-])c2cc(C)cc[n+]2[O-])c1OCC(F)(F)F (racemic) 70

Respond only with Plant response rating, Crabgrass, Large recorded for Cc1cc([S+]([O-])Cc2c(C(F)(F)F)nn(C)c2OCC(F)(F)F)[n+]([O-])cc1Cl (stereo not drawn) 50

Respond only with Plant response rating, Crabgrass, Large recorded for `CCn1nc(C(F)(F)F)c(CS(=O)(=O)c2cc(C)cc[n+]2[O-])c1OCC(F)(F)F` 65

###

- System: bermudagrass
- Measurement notes: Test F preemergence test
- Type: in vivo, Cynodon dactylon
- Condition summary: 16 g ai/ha, preemergence; scale 0 to 100
Could you please report measured Plant response rating, Bermudagrass for the items listed next?
Lab note: jot the number down without any unit.

Respond only with Plant response rating, Bermudagrass recorded for Cn1nc(C(F)(F)F)c(C[S+]([O-])c2ccc(Cl)c[n+]2[O-])c1OCC(F)(F)F (racemic) 20

Respond only with Plant response rating, Bermudagrass recorded for Cc1cc[n+]([O-])c(S(=O)(=O)C(Cl)c2c(C(F)(F)F)nn(C)c2OCC(F)(F)F)c1 (racemic) 35

Respond only with Plant response rating, Bermudagrass recorded for CC(c1c(C(F)(F)F)nn(C)c1OCC(F)(F)F)S(=O)(=O)c1cccc[n+]1[O-] (racemic) 40

Respond only with Plant response rating, Bermudagrass recorded for CC(Oc1c(CS(=O)(=O)c2cccc[n+]2[O-])c(C(F)(F)F)nn1C)C(F)(F)F (centres unmarked) 0

Respond only with Plant response rating, Bermudagrass recorded for CC(Oc1c(C[S+]([O-])c2cccc[n+]2[O-])c(C(F)(F)F)nn1C)C(F)(F)F (centres unmarked) 0

###

Could you please report measured Velvetleaf plant response rating for the items listed next?
- Tested on: velvetleaf
- Measurement notes: Test A pre-/postemergence greenhouse test
- Format: in vivo, Abutilon theophrasti
- Condition summary: Postemergence, 125 g ai/ha; 0 to 100 scale, 0 is no effect, 100 is complete control
Lab note: jot the number down without any unit.

Respond only with Velvetleaf plant response rating recorded for CC(c1c(C(F)(F)F)nn(C)c1Cl)S(=O)(=O)c1ccc(Cl)c[n+]1[O-] (racemic) [Compound 40] 50

Respond only with Velvetleaf plant response rating recorded for Cc1cc[n+]([O-])c(S(=O)(=O)C(C)c2c(C(F)(F)F)nn(C)c2Cl)c1 (racemic) [Compound 14] 0

Respond only with Velvetleaf plant response rating recorded for Cn1nc(C(F)(F)F)c(CS(=O)(=O)c2cccc[n+]2[O-])c1OC(F)F [Compound 4] 50

Respond only with Velvetleaf plant response rating recorded for Cc1cc[n+]([O-])c([S+]([O-])Cc2c(C(F)(F)F)nn(C)c2Cl)c1 (racemic) [Compound 20] 30

Respond only with Velvetleaf plant response rating recorded for Cn1nc(C(F)(F)F)c(C[S+]([O-])c2ccc(Cl)c[n+]2[O-])c1Cl (racemic) [Compound 17] 50

Respond only with Velvetleaf plant response rating recorded for Cn1nc(C(F)(F)F)c(C[S+]([O-])c2cc(Cl)cc[n+]2[O-])c1Cl (racemic) [Compound 39] 40

Respond only with Velvetleaf plant response rating recorded for Cn1nc(C(F)(F)F)c(CS(=O)(=O)c2ccc(Cl)c[n+]2[O-])c1Cl [Compound 18] 0

###

- Test system: cocklebur
- Measurement notes: Test C pre-/postemergence test
- Format: in vivo, Xanthium strumarium
- Condition summary: 125 g ai/ha, preemergence; scale 0 (no effect) to 100 (complete control)
Measured quantity: Cocklebur plant response rating
Lab note: jot the number down without any unit.

Respond only with Cocklebur plant response rating recorded for C#CCOc1c(C[S+]([O-])c2cccc[n+]2[O-])c(C(F)(F)F)nn1C (stereo not drawn) 0

Respond only with Cocklebur plant response rating recorded for CC(C)c1cc[n+]([O-])c([S+]([O-])Cc2c(C(F)(F)F)nn(C)c2OC(F)F)c1 (stereo not drawn) 0

Respond only with Cocklebur plant response rating recorded for Cn1nc(C(F)(F)F)c(C(Cl)S(=O)(=O)c2cccc[n+]2[O-])c1OCC(F)(F)F (racemic) 0

Respond only with Cocklebur plant response rating recorded for CC(Oc1c(C[S+]([O-])c2ccc(Cl)c[n+]2[O-])c(C(F)(F)F)nn1C)C(F)(F)F (stereo not drawn) 20

Respond only with Cocklebur plant response rating recorded for `CCc1cc[n+]([O-])c(S(=O)(=O)Cc2c(C(F)(F)F)nn(C)c2OC(F)F)c1` 0

Respond only with Cocklebur plant response rating recorded for Cn1nc(C(F)(F)F)c(C[S+]([O-])c2ccc(F)c[n+]2[O-])c1OC(F)F (stereo not drawn) 0

Respond only with Cocklebur plant response rating recorded for Cn1nc(C(F)(F)C(F)(F)F)c(C[S+]([O-])c2cccc[n+]2[O-])c1OCC(F)(F)F (stereo not drawn) 50

Respond only with Cocklebur plant response rating recorded for CC(Oc1c(CS(=O)(=O)c2cccc[n+]2[O-])c(C(F)(F)F)nn1C)C(F)(F)F (stereo not drawn) 0

Respond only with Cocklebur plant response rating recorded for Cn1nc(C(F)(F)F)c(C[S+]([O-])c2ccc(Cl)c[n+]2[O-])c1OCC(F)(F)F (racemic) 30

###

- System: crabgrass
- Measurement notes: Test A pre-/postemergence greenhouse test
- Format: in vivo, Digitaria sanguinalis
- Condition summary: Preemergence, 500 g ai/ha; 0 to 100 scale, 0 no effect, 100 complete control
Measured quantity: Crabgrass, Large plant response rating

Respond only with Crabgrass, Large plant response rating recorded for CCOc1ccc(S(=O)(=O)Cc2c(C(F)(F)F)nn(C)c2OC(F)F)[n+]([O-])c1 [Compound 105] 70

Respond only with Crabgrass, Large plant response rating recorded for CC(C)c1cc[n+]([O-])c(S(=O)(=O)Cc2c(C(F)(F)F)nn(C)c2OCC(F)(F)F)c1 [Compound 111] 90

Respond only with Crabgrass, Large plant response rating recorded for Cc1ccc[n+]([O-])c1S(=O)(=O)Cc1c(C(F)(F)F)nn(C)c1OC(F)F [Compound 113] 90

Respond only with Crabgrass, Large plant response rating recorded for CCc1cc[n+]([O-])c([S+]([O-])Cc2c(C(F)(F)F)nn(C)c2OC(F)F)c1 (centres unmarked) [Compound 101] 100

Respond only with Crabgrass, Large plant response rating recorded for Cn1nc(C(F)(F)C(F)(F)F)c(CS(=O)(=O)c2ccc(Cl)c[n+]2[O-])c1OCC(F)(F)F [Compound 100] 80

###

- Test system: velvetleaf
- Measurement notes: Test A pre-/postemergence greenhouse test
- Format: in vivo, Abutilon theophrasti
- Condition summary: Preemergence, 500 g ai/ha; 0 to 100 scale where 0 is no effect and 100 is complete control
- Source text: Seeds of barnyardgrass (Echinochloa crus-galli), crabgrass (Digitaria sanguinalis), giant foxtail (Setaria faberi), morningglory (Ipomoea spp.), redroot pigweed (Amaranthus retroflexus), velvetleaf (Abutilon theophrasti), wheat (Triticum aestivum), and corn (Zea mays) were planted into a blend of loam soil and sand and treated preemergence with a directed soil spray using test compounds formulated in a non-phytotoxic solvent mixture which included a surfactant. […]
Could you please report measured Plant response rating, Velvetleaf for the items listed next?
Lab note: jot the number down without any unit.

Write Plant response rating, Velvetleaf of Cc1cc[n+]([O-])c(S(=O)(=O)C(Cl)c2c(C(F)(F)F)nn(C)c2Cl)c1 (racemic) ; system used: velvetleaf 60

Write Plant response rating, Velvetleaf of CCn1nc(C(F)(F)F)c(C(C)S(=O)(=O)c2cccc[n+]2[O-])c1OCC(F)(F)F (stereo not drawn) ; system used: velvetleaf 100

Write Plant response rating, Velvetleaf of Cn1nc(C(F)(F)F)c(C[S+]([O-])c2cc(Cl)cc[n+]2[O-])c1OC(F)F (stereo not drawn) ; system used: velvetleaf 70

Write Plant response rating, Velvetleaf of Cn1nc(C(F)(F)F)c(C[S+]([O-])c2ccc(Cl)c[n+]2[O-])c1OCC(F)(F)F (racemic) ; system used: velvetleaf 100

Write Plant response rating, Velvetleaf of [O-][n+]1ccccc1[S+]([O-])C(Cl)c1c(C(F)(F)F)nn(CC(F)(F)F)c1Cl (stereo not drawn) ; system used: velvetleaf 50

Write Plant response rating, Velvetleaf of `Cn1nc(C(F)(F)F)c(CS(=O)(=O)c2cccc[n+]2[O-])c1OCC(F)(F)C(F)(F)F` ; system used: velvetleaf 60

Write Plant response rating, Velvetleaf of Cn1nc(C(F)(F)F)c(C[S+]([O-])c2cccc[n+]2[O-])c1OCC(F)F (stereo not drawn) ; system used: velvetleaf 100

Write Plant response rating, Velvetleaf of CC(Oc1c(C[S+]([O-])c2cccc[n+]2[O-])c(C(F)(F)F)nn1C)C(F)(F)F (stereo not drawn) ; system used: velvetleaf 100

Write Plant response rating, Velvetleaf of Cn1nc(C(F)(F)F)c(C[S+]([O-])c2ccc(F)c[n+]2[O-])c1Cl (stereo not drawn) ; system used: velvetleaf 70

Write Plant response rating, Velvetleaf of CCc1cc[n+]([O-])c([S+]([O-])Cc2c(C(F)(F)F)nn(C)c2OCC(F)(F)F)c1 (stereo not drawn) ; system used: velvetleaf 100

Write Plant response rating, Velvetleaf of `Cn1nc(C(F)(F)F)c(CS(=O)(=O)c2cc(Cl)cc[n+]2[O-])c1Cl` ; system used: velvetleaf 0

Write Plant response rating, Velvetleaf of CC(c1c(C(F)(F)F)nn(CC(F)(F)F)c1Cl)S(=O)(=O)c1ccc(Cl)c[n+]1[O-] (stereo not drawn) ; system used: velvetleaf 0

Write Plant response rating, Velvetleaf of Cc1cc[n+]([O-])c(S(=O)(=O)C(C)c2c(C(F)(F)F)nn(C)c2Cl)c1 (racemic) ; system used: velvetleaf 60

Write Plant response rating, Velvetleaf of Cc1cc[n+]([O-])c([S+]([O-])Cc2c(C(F)(F)F)nn(C)c2OC(F)F)c1 (stereo not drawn) ; system used: velvetleaf 100

Write Plant response rating, Velvetleaf of `Cn1nc(C(F)(F)F)c(CS(=O)(=O)c2cccc[n+]2[O-])c1OC(F)F` ; system used: velvetleaf 90
